experiment: qHTS Assay for Lipid Storage Modulators in Drosophila S3 Cells; details: BODIPY lipid droplet fluorescence, 18-24 h, cells fed with added oleic acid; measured here: cell count max response;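 for cell number change: cells counted by Cell Tracker Red CMTPX staining in the red channel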
Out of some 320,000 compounds screened, about 2,100 (0.66%) were called active. Roughly 53% stayed inconclusive and do not appear here. This excerpt belongs to a sample that is enriched for actives.
Item-by-item account of cell number change
Write the answer as a number in %, unit excluded.

Take a look at these entries with their results.
> print(dat)
                                   molecule  unit.abbreviation  value.reported
1  COc1ccccc1CCNC(=O)c1cc(-c2ccncc2)nc2ccc(Br)cc12                  %           -14.5
2                    Cc1ccsc1C=Nc1ccc(O)cc1                  %           -20.6
3  Cc1ccc(NC(=O)c2cccs2)cc1NC(=O)c1cccc(F)c1                  %            9.07
4                 O=C(Nc1ccc(O)cc1)N1CCOCC1                  %              20
5             O=C(O)c1c(-n2cccc2)sc2c1CCCC2                  %            1.31
6  CCCCN(C(=O)c1ccccc1OCc1ccc(F)cc1)c1c(N)n(CCC)c(=O)[nH]c1=O                  %           -14.3
7    COc1ccc(OC)c(NC2=NC3(CCCC3)N=C(N)N2)c1                  %           -7.97
8  COc1cc(C(=O)OCC(=O)Nc2cccc(S(=O)(=O)N3CCOCC3)c2)ccc1OCC(C)C                  %           0.792

Pending molecule:
Returns the measured cell number change for the input molecule. Input: O=C(O)C1CCCN1C(=O)Nc1ccc(F)cc1 (stereo not drawn)
1.35

###

experiment: qHTS Assay for Lipid Storage Modulators in Drosophila S3 Cells; conditions: BODIPY lipid droplet fluorescence, 18-24 h, cells fed with added oleic acid; series mostly up to 46.1 µM
Screen size: about 320,000 compounds; about 2,100 (0.66%) were called active. Another 53% or so got no clear call; they are omitted. Calls come from the whole dose curve; as a rule, active = well fitted inhibition curve with a large enough effect in the signal ratio, with a control signal flat (not every such curve was filed as active); inconclusive = small, poorly fitted or top-dose-only effect, or effect the other way, or a change in a side signal; inactive = flat fitted curve, though single readings scatter; the % refers to the signal ratio. The sample as a whole holds a higher share of actives than the screen did.
Respond using exactly one of the listed classes: active, inactive

Previously resolved entries follow.
> print(dat)
                                   compound     label
1  O=C(COc1ccc([N+](=O)[O-])cc1)Nc1ccc(N2CCN(C(=O)c3ccco3)CC2)cc1    active
2  O=C(CSc1nnc(-c2ccncc2)n1CC1CCCO1)Nc1ccccc1Cl (centres undefined)  inactive
3      CCc1c(C)sc(NC(=O)C2CC2)c1C(=O)OC(C)C    active

Now consider the entry below.
Hello, I am checking results. What call was entered for COc1ccc(N2C(=S)NC3CS(=O)(=O)CC32)cc1 (centres undefined) ?
inactive

###

Item-by-item account of cell number change
assay: qHTS Assay for Lipid Storage Modulators in Drosophila S3 Cells; settings: BODIPY lipid droplet fluorescence, 18-24 h, cells fed with added oleic acid; measured here: cell count max response;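 for cell number change: cells counted by Cell Tracker Red CMTPX staining in the red channel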
Screen size: about 320,000 compounds; about 2,100 (0.66%) were called active. Not shown: some 53% with an inconclusive outcome. Many of the other results were omitted from the sample, so actives are more common in it than they were.
Write the answer as a number in %, unit excluded.

> print(dat)
                                   compound  value.reported
1  Cc1oc(-c2ccccc2F)nc1CN1CCC(C(=O)NCc2cccnc2)CC1            15.7

Returns the measured cell number change for the input compound. Input: CC(=O)c1ccc(S(=O)(=O)NC2CCSc3ccccc32)cc1 (stereo not given)
11.1

What do you get for Cc1nn(CC(=O)OCC(=O)Nc2c(C(C)C)cccc2C(C)C)c(C)c1[N+](=O)[O-] ?
13.1

What do you get for CCc1c(C)nc(N)n2c(SCC(=O)Nc3ccccc3OC)nnc12 ?
6.92

What do you get for CCCC(=O)Nc1cc(C(=O)O)ccc1Sc1ccccc1 ?
-3.48

What do you get for O=C(Nc1ccc(S(=O)(=O)Nc2ncccn2)cc1)C1=COCCO1 ?
6.63

What do you get for Cc1nc2nc(SCc3ccccc3)[nH]n2c(=O)c1CCC(C)C ?
19.7

What do you get for O=C(O)c1cc2nc3c(c(C(F)(F)F)n2n1)CCCC3 ?
-17.1

What do you get for COc1ccc2nc(NC(=O)CCNC(=O)c3ccco3)sc2c1 ?
15.7

What do you get for Cc1c(N(C(=O)c2cnccn2)C2(C(=O)NC3CCCC3)CCCCC2)c(=O)n(-c2ccccc2)n1C ?
-4

What do you get for CCOC(=O)c1c(C)nc(-c2ccccc2)nc1N ?
1.72
